- system_tested: T1, human 5T4-His protein (human, UniProt Q13641 32-355)
- T1 construct: also called recombinant 5T4 protein (human 5T4-his tag); human 5T4 protein; not shown: His tag
- T1 sequence (looked up): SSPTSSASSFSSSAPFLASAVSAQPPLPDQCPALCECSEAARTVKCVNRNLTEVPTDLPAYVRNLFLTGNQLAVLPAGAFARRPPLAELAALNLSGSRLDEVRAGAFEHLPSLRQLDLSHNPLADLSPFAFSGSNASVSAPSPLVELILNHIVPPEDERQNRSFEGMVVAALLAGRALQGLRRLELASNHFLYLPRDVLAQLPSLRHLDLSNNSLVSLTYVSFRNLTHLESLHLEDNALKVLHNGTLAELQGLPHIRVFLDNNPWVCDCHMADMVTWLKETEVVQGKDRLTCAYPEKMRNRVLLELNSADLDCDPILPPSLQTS
- method: SPR Biacore, Protein A capture
# Lookup of reported kon keyed by entry

binder | kon (M⁻¹ s⁻¹)
Hu14G12-10 (antibody, V domains shown, humanized) VH: EVQLVQSGAEVKKPGATVKISCKVSGYAFSSSWMNWVKQAPGKGLEWIGRIYREDGHTNYNGKFKGRATITADTSTTTAYMELSSLRSEDTAVYFCANGGAMDYWGQGTLVTVSS VL: DIQMTQSPSSLSASVGDRVTITCRASQDISNYLNWYQQKPGKAPKLLIYYTSRLHSGVPSRFSGSGSGTDYTFTISSLQPEDIATYFCQQDNTLPWTFGGGTKLEIK | 212000
Hu14G12-12 (antibody, V domains shown, humanized) VH: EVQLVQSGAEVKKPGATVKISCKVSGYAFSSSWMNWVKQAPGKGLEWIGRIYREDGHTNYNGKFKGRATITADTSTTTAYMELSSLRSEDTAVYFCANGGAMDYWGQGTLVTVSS VL: DIQMTQSPSSLSASVGDRVTISCRASQDISNYLNWYQQKPGKTVKLLIYYTSRLHSGVPSRFSGSGSGTDYTFTISSLQPEDIATYFCQQDNTLPWTFGGGTKLEIK | 274000
Hu14G12-14 (antibody, V domains shown, humanized) VH: EVQLVQSGAEVKKPGATVKISCKASGYAFSSSWMNWVKQAPGKGLEWIGRIYREDGHTNYNGKFKGRATITADTSTTTAYMELSSLRSEDSAVYFCANGGAMDYWGQGTLVTVSS VL: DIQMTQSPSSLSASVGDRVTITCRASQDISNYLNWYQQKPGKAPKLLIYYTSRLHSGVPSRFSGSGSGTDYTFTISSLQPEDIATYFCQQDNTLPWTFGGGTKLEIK | 207000
